Experiment: protein stability index of a GFP-peptide fusion (yeast GPS) (PSI 1-4); higher = more stable; sorted into four equal gates, so the index is relative within each strain
Details: san1∆
quantity: protein stability index
Please state the value as a number alone, without comment.

Below: 5 sequences and their reported protein stability index.
residue.sequence: ERFQVMVLRKQKRYTVK [RPL14A]
protein stability index: 2.21

residue.sequence: EKLVSDLRLIKVPQQAA [SMC1]
protein stability index: 2.16

residue.sequence: DTRFGGRMDMTRLYDYE [SSN2]
protein stability index: 3.47

residue.sequence: GLAVGLALINYGRQELA [RPN2]
protein stability index: 1.58

residue.sequence: HQQQLQQPHYIQRTRER [DSN1]
protein stability index: 2.92

Bench note: what protein stability index did NLYMLVTTCVYLACKVE [SSN8] show?
1.62

Item AFDIELSEFGIKKMLHL [YCS4] has what recorded protein stability index?
2.67

Requested field: protein stability index. Item: KEEISDQKPIEHIKEGS [SWI3]
2.88

# query: protein stability index of entry PLLPIVEELMKKRRGSR [SNU114]
2.87

Reported protein stability index, sequence DDDINWQELARSTDEFN [RPT5] : ____
3.11

----------
Test: protein stability index of a GFP-peptide fusion (yeast GPS) (PSI 1-4); higher = more stable; sorted into four equal gates, so the index is relative within each strain
Conditions: pdr5∆
quantity: protein stability index

Examples with their reported protein stability index follow.
residue.sequence: VRQLYKGKKYQPKDLRA [RPL35A]
protein stability index: 3.17
//
residue.sequence: IAEVGNKRWKVDIGGKQ [RRP4]
protein stability index: 3.32
//
residue.sequence: KTEYVLNDLNHLLVQLQ [REC8]
protein stability index: 3.02

Here is another sequence to look at.
I'd like to know its protein stability index. The sequence in question is STTQEILEFITAAQVAN [RPC34]
1.71

----------
Test: protein stability index of a GFP-peptide fusion (yeast GPS) (PSI 1-4); higher = more stable; sorted into four equal gates, so the index is relative within each strain
Conditions: ubr1∆
quantity: protein stability index
Respond with the number and no other words.

Observe how each entry below is paired with its result.
residue.sequence: DATNTSYKMIQLDAYGE [SWP82]
assay.value: 3.16
--
residue.sequence: AKKLSSFDFGNENEDED [ARP9]
assay.value: 3.15
--
residue.sequence: VMSIESLVEVVFYRGMT [FAS1]
assay.value: 2.66
--
residue.sequence: MAPVKSQESINQKLALV [RPL30]
assay.value: 2.25
--
residue.sequence: YLMTYPQQPMVKTKTIE [RET1]
assay.value: 1.08

Could you tell me which protein stability index is on file for TSRKALEEVSLKWIDTA [RPL3] ?
1.9

Which protein stability index is listed for QPWQMDTNNEADLMALE [SNF12] ?
3.2

Fill blank: measured protein stability index of the sequence LNDRKVLFAAYKVEHPF [RPB11] is ____.
2.27

Find the recorded protein stability index belonging to ISVTDTEVERAKSLLKL [COR1] and report it.
3.24

State the recorded protein stability index for this entry: ECQVIAAEGLCKLFLAD [YCG1]
3.25

Quick one: protein stability index of ELSDKEIYTVEDRPPEY [ISW2] ?
3.42

protein stability index lookup needed for TPFSFGTANNNSNTTNQ [YJL041W/NSP1] , thanks.
3.09

# lookup: protein stability index of MSVKPIDNYITNSVRLF [SRP21]
1.63

----------
Experiment: protein stability index of a GFP-peptide fusion (yeast GPS) (PSI 1-4); higher = more stable; sorted into four equal gates, so the index is relative within each strain
Conditions: san1∆
quantity: protein stability index
API note: the answer field is a bare number with no unit suffix.

Record excerpt, results attached:
residue.sequence: GVSISVSFNSKQNEQLH [SMC3]
assay.value: 2.7
//
residue.sequence: PLPPRIDPSVTMMTVEE [RPT1]
assay.value: 2.12
//
residue.sequence: YTKKHLSSHSSTNSNSK [RPN4]
assay.value: 2.95
//
residue.sequence: NKKIGKRPPEIMSTEAH [SIR4]
assay.value: 3.04

Given LSAPLSKELRAQYGIKA [RPL26A] , state its recorded protein stability index.
3.48

----------
Reported protein stability index values follow for various sequences
Assay: protein stability index of a GFP-peptide fusion (yeast GPS) (PSI 1-4); higher = more stable; sorted into four equal gates, so the index is relative within each strain
Settings: doa10∆

Look over these answered cases.
residue.sequence: PITGASLDLIKERRSLK [RPL24A]
protein stability index: 3.04

residue.sequence: HVEKERASTELSQSRIK [YIL149C/MLP2]
protein stability index: 3.01

residue.sequence: VLITSYEMVIREKNALK [ISW2]
protein stability index: 2.33

residue.sequence: YERRFGPYFVGPVVAGI [PUP3]
protein stability index: 3.25

residue.sequence: AQHESFLRQKICLMTLI [RPN9]
protein stability index: 1.26

Request the reported protein stability index associated with TQMDGFDQSTNVKVIMA [RPT3]
2.28

Fill blank: measured protein stability index of the sequence ASTVAKTAPIQESFVPN [YOR098C/NUP1] is ____.
2.97

# get_value(readout='protein stability index', item= PKYIDELKTRDATNTSY [SWP82] )
2.68

Returns the measured protein stability index for the input sequence. Input: LLSLINSTHLLPLQPIE [SNF12]
2.34

So what does the record say about protein stability index for TEFEFYLLEELESYLIV [SSN8] ?
2.63

I am curious: what protein stability index value has been reported for ASKGIDRLSLQDRQQLL [ECM29] ?
3.08

----------
Experiment: protein stability index of a GFP-peptide fusion (yeast GPS) (PSI 1-4); higher = more stable; sorted into four equal gates, so the index is relative within each strain
Details: doa10∆
quantity: protein stability index
When you answer, write just the number.

residue.sequence: DSVILASSKAVTRGISV [PRE1]
quantity: protein stability index
assay.value: 2.14
--
residue.sequence: SLAWSADGQTLFAGYTD [ASC1]
quantity: protein stability index
assay.value: 2.66
--
residue.sequence: VYKDNLSFIQVRIDLGT [RPO31]
quantity: protein stability index
assay.value: 1.28
--
residue.sequence: SPRNTYQCAMGKQAIGA [RET1]
quantity: protein stability index
assay.value: 1.94
--
residue.sequence: TTTRIQSQQAQPSDVMF [MED2]
quantity: protein stability index
assay.value: 2.91

Let us move to another entry and its protein stability index.
// returns reported protein stability index for input EEGRAIPGEYITYALSG [RPS21B]
2.99

----------
# maps each entry to its protein stability index
Assay: protein stability index of a GFP-peptide fusion (yeast GPS) (PSI 1-4); higher = more stable; sorted into four equal gates, so the index is relative within each strain
Settings: pdr5∆

residue.sequence: PDFKPWEHTAAEDQILA [SRB8]
assay.value: 2.95
--
residue.sequence: PRVKGFKMNEIVPLHSP [SEC65]
assay.value: 3.01
--
residue.sequence: SKLPDPERWLPLRDRST [SRP72]
assay.value: 2.91

Given TDVEKSDPAAKKTATEP [SRP21] , state its recorded protein stability index.
3.02

----------
Assay: protein stability index of a GFP-peptide fusion (yeast GPS) (PSI 1-4); higher = more stable; sorted into four equal gates, so the index is relative within each strain
Settings: ubr1∆
quantity: protein stability index

Completed entries (count: 3):
residue.sequence: LPDEKSDAMSIDEEDKD [YCG1]
protein stability index: 3.06

residue.sequence: AGVLNGTLEYGTCFGGS [RET1]
protein stability index: 3.08

residue.sequence: KLREKVNDVELAFKKNE [MTW1]
protein stability index: 3.06

Attention now shifts to the item below.
Sample AATVRSTIRRLREMVEA [RPL43A] — what was its protein stability index?
3.09

----------
Assay: protein stability index of a GFP-peptide fusion (yeast GPS) (PSI 1-4); higher = more stable; sorted into four equal gates, so the index is relative within each strain
Settings: pdr5∆
Documented protein stability index across a set of sequences
Reply with just the number.

The examples below pair each entry with its known result.
residue.sequence: SAIVNEDGLLEGLDELP [SOH1]
protein stability index: 3.24
--
residue.sequence: AQHESFLRQKICLMTLI [RPN9]
protein stability index: 1.33
--
residue.sequence: IEQFAMRRNSKILNIIK [POP5]
protein stability index: 2.88
--
residue.sequence: QTAVTCESCSTVLCTPT [RPS27B]
protein stability index: 2.29

Now for another entry.
What protein stability index value was documented for this sequence, RTAPKSDNVYLKLLVKL [RPL18A] ?
2.8

----------
Assay: protein stability index of a GFP-peptide fusion (yeast GPS) (PSI 1-4); higher = more stable; sorted into four equal gates, so the index is relative within each strain
Details: ubr1∆
Measured protein stability index by item

Answered cases to consult:
residue.sequence: YKKPTGGIVTVRSEMGE [FAS1]
protein stability index: 1.39

residue.sequence: KLNKVDKNELQQMIITR [SIR3]
protein stability index: 3.23

residue.sequence: ISVSSRSDREYPLLIRM [SRP14]
protein stability index: 2.34

residue.sequence: HVEKERASTELSQSRIK [YIL149C/MLP2]
protein stability index: 3.1

residue.sequence: YWSDKKADTDTLLYEQI [SNF5]
protein stability index: 2.3

residue.sequence: NKLMEKDFQVNKEIKPY [SIR4]
protein stability index: 3.28

residue.sequence: EEYVINLLKVSVDICNN [ECM29]
protein stability index: 2.65

residue.sequence: DEEGIFSRFVDQFIRHV [YCG1]
protein stability index: 2.93

Dear colleague, I am looking for the recorded protein stability index of the following sequence: IRENKVTYSRVSKKVDV [BRN1]
3.04

Field request: protein stability index | item: LDLKECYQFAEYLFKPQ [ARP7]
2.97

Item IQKGKFTLLDFKKQMQT [SRP54] has what recorded protein stability index?
1.7

Entry GCYFEEKRYDDKLLDFI [CSN12] has what protein stability index?
3.04
